System: LOC_OS01G01410-cb001
Assay: thermal shift delta Tm vs DMSO control; higher = stronger stabilization (binding);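 note: purified Escherichia coli-expressed rice kinase domain construct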
Details: 12.5 µM; protein concentration 2 µM
Counter-ions that a name gives are not always drawn.
Reported thermal shift delta Tm values follow for various compounds
Please make sure the unit comes right after the number.

// below: answered compounds
Entry Cc1ccc(C(=O)Nc2ccc(CN3CCN(C)CC3)c(C(F)(F)F)c2)cc1C#Cc1cnc2[nH]ncc2c1 [GZD824 Dimesylate] needs its thermal shift delta Tm filled in; supply it. 4.32 °C

Entry C[S+]([O-])c1ccc(-c2nc(-c3ccc(F)cc3)c(-c3ccncc3)[nH]2)cc1 (stereo unspecified) needs its thermal shift delta Tm filled in; supply it. 1.61 °C

Entry Cc1c(CN2CCN(C(=O)[C@H](C)O)CC2)sc2c(N3CCOCC3)nc(-c3cnc(N)nc3)nc12 [Apitolisib (GDC-0980, RG7422)] needs its thermal shift delta Tm filled in; supply it. 0.32 °C

Entry CCc1cc(Nc2nccc(-c3c(-c4ccc(OC)c(C(=O)Nc5c(F)cccc5F)c4)nc4ccccn34)n2)c(OC)cc1N1CCC(N2CCN(S(C)(=O)=O)CC2)CC1 needs its thermal shift delta Tm filled in; supply it. 1.23 °C

Entry COC(=O)N[C@@H](C)CNc1nccc(-c2cn(C(C)C)nc2-c2cc(Cl)cc(NS(C)(=O)=O)c2F)n1 [Encorafenib (LGX818)] needs its thermal shift delta Tm filled in; supply it. 0.41 °C

Entry CCCCCCCCCCCCCCCCCCOP(=O)([O-])OC1CC[N+](C)(C)CC1 [Perifosine (KRX-0401)] needs its thermal shift delta Tm filled in; supply it. -2.46 °C

Entry C[C@@H](Oc1cc(-c2cnn(C3CCNCC3)c2)cnc1N)c1c(Cl)ccc(F)c1Cl needs its thermal shift delta Tm filled in; supply it. 2.96 °C

Entry COc1cc2c3cc1Oc1c(OC)c(OC)cc4c1[C@@H](Cc1ccc(O)c(c1)Oc1ccc(cc1)C[C@@H]3N(C)CC2)N(C)CC4 [Berbamine (dihydrochloride)] needs its thermal shift delta Tm filled in; supply it. -0.04 °C

# context switch: different compound, same thermal shift delta Tm
Entry COc1ccc2[nH]cc(/C=C3\C(=O)Nc4ccc(NC(=O)CCN5CCCCC5)cc43)c2c1 needs its thermal shift delta Tm filled in; supply it. 0.24 °C

----------
Test system: LOC_OS01G39600-cb002
Assay: thermal shift delta Tm vs DMSO control; higher = stronger stabilization (binding)
Details: 12.5 µM; protein concentration 2 µM
measured.property: thermal shift delta Tm
Please make sure the unit comes right after the number.

Entry O=c1c(O)c(-c2cc(O)c(O)c(O)c2)oc2cc(O)cc(O)c12 needs its thermal shift delta Tm filled in; supply it. 4.45 °C

Entry C1=N/C2=N/c3ccc(OCCN4CCCC4)c(c3)COC/C=C/COCc3cccc(c3)C(=C1)N2 [Pacritinib (SB1518)] needs its thermal shift delta Tm filled in; supply it. 4.09 °C

Entry Oc1cc(CNC(=S)/C=C/c2cc(O)c(O)c(Br)c2)cc(O)c1O needs its thermal shift delta Tm filled in; supply it. 0.87 °C

Entry Cc1c(NC(=O)OC[C@@H]2COCCN2)cn2ncnc(Nc3ccc4c(cnn4Cc4cccc(F)c4)c3)c12 needs its thermal shift delta Tm filled in; supply it. 0.91 °C

# context switch: different molecule, same thermal shift delta Tm
Entry Cc1c[nH]c(/C=C2\C(=O)Nc3ccccc32)c1CCC(=O)O needs its thermal shift delta Tm filled in; supply it. 4.55 °C

----------
Test system: LOC_OS03G27990-cb004
Assay: thermal shift delta Tm vs DMSO control; higher = stronger stabilization (binding)
Conditions: 12.5 µM; protein concentration 2 µM
measured.property: thermal shift delta Tm (°C)
Give the number; °C is assumed, so skip it.

// below: answered molecules
Entry Cc1nc(Nc2ncc(C(=O)Nc3c(C)cccc3Cl)s2)cc(N2CCN(CCO)CC2)n1 needs its thermal shift delta Tm filled in; supply it. 1.34

Entry CCNc1nc(Nc2cc(F)c(C(=O)N3CCOCC3)cc2OC)ncc1C(F)(F)F needs its thermal shift delta Tm filled in; supply it. 0.28

Entry O=S(=O)(NCCNC/C=C/c1ccc(Br)cc1)c1cccc2cnccc12 needs its thermal shift delta Tm filled in; supply it. 0.02

Entry O=C(Nc1cccnc1)c1cc(-c2ccnc(F)c2)ccc1OCc1ccccc1 needs its thermal shift delta Tm filled in; supply it. 0.39

# context switch: different molecule, same thermal shift delta Tm
Entry CN(C)S(=O)(=O)c1ccc2c(c1)/C(=C/c1cc3c([nH]1)CCCC3)C(=O)N2 needs its thermal shift delta Tm filled in; supply it. 0.61

----------
System: LOC_OS01G10900-cb004
Test: thermal shift delta Tm vs DMSO control; higher = stronger stabilization (binding)
Settings: 12.5 µM; protein concentration 2 µM
measured.property: thermal shift delta Tm (°C)
Give the number; °C is assumed, so skip it.

// below: answered compounds
Entry COc1ncc(-c2cc(-c3ncc(CN4C[C@@H](C)O[C@@H](C)C4)o3)c3cn[nH]c3c2)cc1NS(C)(=O)=O needs its thermal shift delta Tm filled in; supply it. -0.41

Entry C=CC(=O)Nc1ccc2ncnc(Nc3ccc(OCc4cccc(F)c4)c(Cl)c3)c2c1 needs its thermal shift delta Tm filled in; supply it. 3.29

Entry CCCCCCCCCCCCCCCCCCOP(=O)([O-])OC1CC[N+](C)(C)CC1 needs its thermal shift delta Tm filled in; supply it. -2.19

Entry Cc1ccc(Nc2nccc(N(C)c3ccc4c(C)n(C)nc4c3)n2)cc1S(N)(=O)=O needs its thermal shift delta Tm filled in; supply it. 1.7

# context switch: different compound, same thermal shift delta Tm
Entry COc1ccc(C(=O)Nc2sc3c(c2C(N)=O)CCCC3)cc1OC needs its thermal shift delta Tm filled in; supply it. 0.36

----------
Tested on: LOC_OS06G16330-cb003
Sequence (as listed by the source): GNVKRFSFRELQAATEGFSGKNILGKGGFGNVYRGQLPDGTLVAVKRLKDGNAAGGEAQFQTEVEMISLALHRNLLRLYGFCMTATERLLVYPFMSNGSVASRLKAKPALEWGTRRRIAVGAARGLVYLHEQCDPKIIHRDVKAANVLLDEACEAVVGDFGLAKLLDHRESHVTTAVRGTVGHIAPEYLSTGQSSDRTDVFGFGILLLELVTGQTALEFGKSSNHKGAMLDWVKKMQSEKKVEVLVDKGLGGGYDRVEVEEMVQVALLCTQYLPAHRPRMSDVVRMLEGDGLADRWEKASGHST
Experiment: thermal shift delta Tm vs DMSO control; higher = stronger stabilization (binding)
Settings: 12.5 µM; protein concentration 2 µM
Given measured thermal shift delta Tm, output class 1 if it is greater than or equal to 4 °C and class 0 if not.

Worked examples, 4 compounds total:
Decide: is the reported value of thermal shift delta Tm for CNC(=O)c1cc(Oc2ccc(NC(=O)Nc3ccc(Cl)c(C(F)(F)F)c3)c(F)c2)ccn1 [Regorafenib (BAY 73-4506)] equal to or greater than 4 °C? class 0

Decide: is the reported value of thermal shift delta Tm for Cc1ccc(F)c(NC(=O)Nc2ccc(-c3cccc4[nH]nc(N)c34)cc2)c1 [Linifanib (ABT-869)] equal to or greater than 4 °C? class 0

Decide: is the reported value of thermal shift delta Tm for CC(=O)c1c(C)c2cnc(Nc3ccc(N4CCNCC4)cn3)nc2n(C2CCCC2)c1=O equal to or greater than 4 °C? class 1

Decide: is the reported value of thermal shift delta Tm for Cc1ccc(NC(=O)c2ccc(CN3CCN(C)CC3)cc2)cc1Nc1nc(-c2cccnc2)cs1 [Masitinib (AB1010)] equal to or greater than 4 °C? class 0

Please find the next compound below.
Decide: is the reported value of thermal shift delta Tm for Nc1cccc(-c2cc3c(Oc4cccc(O)c4)ncnc3[nH]2)c1 equal to or greater than 4 °C? class 1

----------
Tested on: LOC_OS02G54510-cb004
Assay: thermal shift delta Tm vs DMSO control; higher = stronger stabilization (binding)
Settings: 12.5 µM; protein concentration 2 µM
Reported thermal shift delta Tm values follow for various compounds
Give the number; °C is assumed, so skip it.

Entry CCc1cncnc1N1CCN(Cc2nc3ccc(C(F)(F)F)cc3[nH]2)CC1 needs its thermal shift delta Tm filled in; supply it. 0.3

Entry O=C(Nc1cc(C(F)(F)F)cc(C(F)(F)F)c1)c1cc(Cl)ccc1O needs its thermal shift delta Tm filled in; supply it. -0.16

Entry COC(=O)N[C@@H](C)CNc1nccc(-c2cn(C(C)C)nc2-c2cc(Cl)cc(NS(C)(=O)=O)c2F)n1 needs its thermal shift delta Tm filled in; supply it. -0.06

# context switch: different compound, same thermal shift delta Tm
Entry COc1cc(Nc2ncc3c(n2)-c2ccc(Cl)cc2C(c2c(F)cccc2OC)=NC3)ccc1C(=O)O needs its thermal shift delta Tm filled in; supply it. 4.54

----------
System: LOC_OS02G08530-cb003
Test: thermal shift delta Tm vs DMSO control; higher = stronger stabilization (binding)
Conditions: 12.5 µM; protein concentration 2 µM
Given measured thermal shift delta Tm, output TRUE if it is greater than or equal to 1 °C and FALSE if not.

Decide: is the reported value of thermal shift delta Tm for COc1ccc(Oc2cc(NCCC(F)(F)F)c3ncc(-c4ccc(C(=O)NC5CC5)c(C)c4)n3n2)c(F)c1F equal to or greater than 1 °C? FALSE

Decide: is the reported value of thermal shift delta Tm for CN1CCCN(C(=O)c2cccc(-c3ccc(/C=C4/C(=O)Nc5ccc(Cl)cc54)o3)c2)CC1 equal to or greater than 1 °C? TRUE

Decide: is the reported value of thermal shift delta Tm for CCCCCCCCCC(=O)CC(O)S(=O)(=O)O (stereo unspecified) [Sodium Houttuyfonate] equal to or greater than 1 °C? FALSE

Decide: is the reported value of thermal shift delta Tm for Cc1ccc(NC(=O)c2ccc(CN3CC[C@H](N(C)C)C3)c(C(F)(F)F)c2)cc1Nc1nccc(-c2cncnc2)n1 [Bafetinib (INNO-406)] equal to or greater than 1 °C? TRUE

Decide: is the reported value of thermal shift delta Tm for O=C(O)c1ccc(-c2c[nH]c3ncc(-c4ccccc4)cc23)cc1C1CCCC1 equal to or greater than 1 °C? TRUE

Others:
Decide: is the reported value of thermal shift delta Tm for Cc1cnc(Nc2ccc(N3CCN(C)CC3)cc2)nc1Nc1cccc(S(=O)(=O)NC(C)(C)C)c1 equal to or greater than 1 °C? TRUE

Decide: is the reported value of thermal shift delta Tm for Cc1c(NC(=O)OC[C@@H]2COCCN2)cn2ncnc(Nc3ccc4c(cnn4Cc4cccc(F)c4)c3)c12 equal to or greater than 1 °C? FALSE

Decide: is the reported value of thermal shift delta Tm for Cn1cc(-c2ccc3nnc(Sc4ccc5ncccc5c4)n3n2)cn1 equal to or greater than 1 °C? TRUE
